- tested_target: human GcgR (Homo sapiens)
- Sequence (P47871 26-477): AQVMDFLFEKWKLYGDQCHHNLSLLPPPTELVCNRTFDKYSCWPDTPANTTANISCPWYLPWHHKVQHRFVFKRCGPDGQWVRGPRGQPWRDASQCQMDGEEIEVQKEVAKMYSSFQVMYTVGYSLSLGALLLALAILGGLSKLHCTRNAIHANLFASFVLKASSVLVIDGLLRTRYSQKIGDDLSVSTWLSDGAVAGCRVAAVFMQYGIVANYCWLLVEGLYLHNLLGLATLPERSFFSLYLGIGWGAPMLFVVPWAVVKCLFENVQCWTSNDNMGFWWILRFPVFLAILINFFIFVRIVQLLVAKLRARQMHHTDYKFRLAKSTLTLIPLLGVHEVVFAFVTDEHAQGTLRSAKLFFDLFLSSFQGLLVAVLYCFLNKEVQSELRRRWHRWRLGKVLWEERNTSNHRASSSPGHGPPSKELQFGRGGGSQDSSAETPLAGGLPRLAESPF
- protocol_details: Functional cAMP activity in the presence of 1% HSA
- Type: cell-based
- experimental_setup: read-out: cAMP Rel EC50, hGcgR
Starred links: 1 amine or outer side, 2 acyl side, 3 side chain; linkers in the order of their positions; H or OH if unused. Non-standard residues stand in square brackets, D forms with d. Groups on a side chain read outwards from the residue. *: point of attachment. C18 diacid = O=C(O)CCCCCCCCCCCCCCCCC(=O)*; αMePhe(2-F) = C[C@](N)(Cc1ccccc1F)C(=O)O; γGlu = O=C(O)[C@H](CCC(=O)[*:2])N[*:1]; αMe4Pal = C[C@](N)(Cc1ccncc1)C(=O)O; αMeY = C[C@](N)(Cc1ccc(O)cc1)C(=O)O; 4Pal = N[C@@H](Cc1ccncc1)C(=O)O; αMeL = CC(C)C[C@](C)(N)C(=O)O; Orn = NCCC[C@H](N)C(=O)O; Aib = CC(C)(N)C(=O)O
Let's look at some substances and their measured pEC50.
Note on pEC50: it is the negative log10 of concentration, concentration in mol/L.

# example entries with known answers
# substance, value_reported
measured = [
    ("H-Y[Aib]QGTFTSD[4Pal]SQ[αMeL]LD[Orn]K([γGlu-γGlu-C18 diacid])AQ[αMe4Pal]AFIEYLIA[Aib]GPSSGEPPPSGSEE-NH2 [Example 1092]", 6.30),
    ("H-Y[Aib]QGT[αMePhe(2-F)]TSD[4Pal]SI[αMeL]LD[Orn]K([γGlu-γGlu-C18 diacid])AQ[αMe4Pal][Orn]FI[dE][αMeY]LIEGGPSSGEPPPSGE-NH2 [Example 682]", 6.90),
]

Now look at this entry.
Requested field: pEC50. Item: H-Y[Aib]QGTFTSD[4Pal]SQ[αMeL]LDKK([γGlu-γGlu-C18 diacid])AQ[αMe4Pal]AFIE[αMe4Pal]LIE[Aib]GPSSGEPPPSGSEE-NH2 [Example 1125]
6.58
